system: Saccharomyces cerevisiae; experiment: protein stability index of tFT-peptide fusion (C-terminal peptide) (PSI (0-1 scale)); higher = more stable (slower turnover); details: genetic background: wild type; temperature: 30 C
QUANTITY MEASURED: protein stability index
Could you respond with only the numeric value?

Reported protein stability index (Saccharomyces cerevisiae) for entry IHDGKKEGKSQK is 0.695

Test item HPPPLGSSASNS ; Saccharomyces cerevisiae; reported protein stability index was 0.703

Hey, Saccharomyces cerevisiae data for SVYPSSPTRPPP : protein stability index came out at 0.683

Hey, Saccharomyces cerevisiae data for PLPRPPSPLPAL : protein stability index came out at 0.689

* * *

tested on: Saccharomyces cerevisiae; experiment: protein stability index of tFT-peptide fusion (C-terminal peptide) (PSI (0-1 scale)); higher = more stable (slower turnover); conditions: genetic background: wild type; temperature: 30 C
QUANTITY MEASURED: protein stability index
The response must contain the number and no unit.

Worked cases, protein stability index given:
1. WANGEFSLGCGG = 0.712
2. PPPPSSLPPPPC = 0.691
3. PPPPPTPPSSTP = 0.713
4. VWRVGRARGQMG = 0.695
5. ARVPPFPCHPTL = 0.686

Reported protein stability index ( HHAKWAHGTPAQ ) = 0.681

Lab note: measured protein stability index of QGTNKRRNKNWE was 0.704

Item: PPPPLAVSPTSP | protein stability index: 0.716

Kindly note the recorded protein stability index for AVRDGSGCQCVG , which is 0.68

* * *

system: Saccharomyces cerevisiae; experiment: protein stability index of tFT-peptide fusion (C-terminal peptide) (PSI (0-1 scale)); higher = more stable (slower turnover); conditions: genetic background: wild type; temperature: 30 C
Measured protein stability index by item
// return just the number, without any unit appended

1) KSSTLRKIKRGK = 0.716
2) LVFSFFFLFFFM = 0.394
3) TREITDAKVGNE = 0.715

response.value for WGGGVLRRRVGA (field: protein stability index) = 0.752

So for SGNDIQSLNIVI , the logged protein stability index turned out to be 0.754

Kindly note the recorded protein stability index for SLLQSLPSPPPP , which is 0.639

Query VGGSERVWVKSL yields protein stability index of 0.537

# protein stability index (sequence: RGLYPLKVDCQW ) is 0.753

Recorded result, WHEHGGVGTYFI , protein stability index: 0.674

Per the record, EYKKKKTKANDT has protein stability index of 0.694

* * *

Form field: protein stability index (one value per entry).
test system: Saccharomyces cerevisiae; test: protein stability index of tFT-peptide fusion (C-terminal peptide) (PSI (0-1 scale)); higher = more stable (slower turnover); conditions: genetic background: das1 deletion; temperature: 30 C
// response body must contain only the number

Answered examples (2):
1. DAKFMMQASCSS [FMP40 C-terminal 12 aa] = 0.69
2. TVPEFPAPIFPN [YDL159C-B C-terminal 12 aa] = 0.72

Now take the following sequence into account.
The recorded protein stability index for entry CSGMKPISELQQ [RSM28 C-terminal 12 aa] equals 0.695

* * *

Documented protein stability index across a set of sequences
system: Saccharomyces cerevisiae; assay: protein stability index of tFT-peptide fusion (C-terminal peptide) (PSI (0-1 scale)); higher = more stable (slower turnover); settings: genetic background: wild type; temperature: 30 C
Lab note: jot the number down without any unit.

Before answering, review these 3 worked examples.
1. PTMKLPLLSCAR = 0.602
2. LPPPPLTTLLHT = 0.604
3. IIDCQVSFSFLI = 0.588

Note to self: protein stability index recorded for WCLNMLLIPSMY was 0.605

get_value(item= TFFLPPSCFYPP , readout=protein stability index) returns 0.616

* * *

system: Saccharomyces cerevisiae; assay: protein stability index of tFT-peptide fusion (C-terminal peptide) (PSI (0-1 scale)); higher = more stable (slower turnover); details: genetic background: cdc34-1; temperature: 37 C
Each entry falls into one class according to its protein stability index; the ranges are b0 (below 0.3), b1 (0.3 to below 0.5), b2 (0.5 or more)

Known results for sequences:
1. FILFSEMFASSV = b0
2. FFVWLGWGMFYG = b2
3. SFSRLWSLFRCL = b1
4. IRSRGLLIRWLS = b2
5. SSLTFTFAILLY = b0

Kindly identify the class of RTWFTYMSIPVW .
b0

Class (by measured protein stability index) for WGRAADRRRRLG
b2

Sort into band: VLRLVLFVLISV
b1

Class? Entry: CSRVVGLFFLVV
b2

Pick a category. Item: PWGSHLYYVVCI
b0

Classify this sequence: DPKQVRIQSSWL
b2

In plain terms, what class is LVYLVCAYSECE ?
b1

Could you tell me which band VAVFFFCRVFFL belongs to?
b0

* * *

tested on: Saccharomyces cerevisiae; test: protein stability index of tFT-peptide fusion (C-terminal peptide) (PSI (0-1 scale)); higher = more stable (slower turnover); conditions: genetic background: wild type; temperature: 30 C
Quick rule for you: protein stability index at 0.7 or higher means Met, lower means Not met.

Example entries and their recorded answers appear below.
1) VGDFFVLVGFVA = Not met
2) PPTLPVPSPSPL = Met
3) YSGRGLISNHGY = Met
4) KKQKRRKGEREK = Not met

Is reported protein stability index greater than or equal to 0.7 here: PRVLPFPSFLFF
Not met

* * *

system: Saccharomyces cerevisiae; test: protein stability index of tFT-peptide fusion (C-terminal peptide) (PSI (0-1 scale)); higher = more stable (slower turnover); details: genetic background: wild type; temperature: 30 C
QUANTITY MEASURED: protein stability index
Form: value (number only, do not type unit).

Example cases with answers are listed next.
1. LLLPPLPPLSLS = 0.713
2. PLSAPNHVPGRT = 0.702
3. TRNTNYNKKIKV = 0.68
4. GGGGWGGAGLVG = 0.704
5. MNSDQSGQGLTV = 0.711
6. VYSDSCLLRKTT = 0.695
7. SSHYSSPAALPY = 0.696
8. PLRLPPPRSPPL = 0.689

Form: sequence = KKKNKKKQKEEK ; protein stability index = 0.693

Record SVPLYRLSSWRN . Reported protein stability index: 0.695

* * *

system: Saccharomyces cerevisiae; experiment: protein stability index of tFT-peptide fusion (C-terminal peptide) (PSI (0-1 scale)); higher = more stable (slower turnover); conditions: genetic background: wild type; temperature: 30 C
# key: entry, value: protein stability index

1. GGGARQAGGDNI = 0.666

Now let's try a different one.
sequence TFFFLGSVFSLA , protein stability index observed: 0.638

* * *

tested on: Saccharomyces cerevisiae; test: protein stability index of tFT-peptide fusion (C-terminal peptide) (PSI (0-1 scale)); higher = more stable (slower turnover); conditions: genetic background: wild type; temperature: 30 C
Cut-off 0.7 on protein stability index, inclusive. At or above means 1; below means 0.

1. KKEGKTKSIRKK = 1
2. LGVFNRMKHSKH = 0
3. LLMPRTKEEYDN = 0
4. RSSARPQNRPLP = 1
5. WGPVPWWFGWMG = 0
6. FLSGVGSHLTGP = 0

Continue with the next sequence.
Reported protein stability index at or above 0.7? RVFDPSRSTVVE
1

* * *

tested on: Saccharomyces cerevisiae; assay: protein stability index of tFT-peptide fusion (C-terminal peptide) (PSI (0-1 scale)); higher = more stable (slower turnover); details: genetic background: wild type; temperature: 30 C
QUANTITY MEASURED: protein stability index
Answer using only a numeral; do not append any unit.

The examples below pair each entry with its known result.
1. KTKKNKKKKINK = 0.692
2. KKKKQIKKTKKK = 0.701

protein stability index in this record for TYHRSYLLATVV : 0.314

In plain terms, YVVYLQVCWMRS has a documented protein stability index of 0.227

Quick note, protein stability index for VGGEGVGVGGEV landed at 0.616

Notebook: CRGLSWRMITCL , protein stability index read as 0.225

The recorded protein stability index for entry HWCQKNKFKAIS equals 0.669

Looking up KYMPKDSLKNTI , I found its protein stability index recorded as 0.622

For record TVPESGSIGERK the listed protein stability index is 0.672

Memo: LGSLSPRLPSLR , reported protein stability index: 0.672

The sequence identified as VVFLFVEAVVGV registered its protein stability index at 0.0707

Sample QVKESDGEATKS ; protein stability index observed: 0.592

Given item PPPEVDLRPCHC , the value recorded as its protein stability index is 0.688

Lab book: protein stability index of KFFRSWVLTSPA noted as 0.494

sequence RETMFTRFRGSD , protein stability index observed: 0.627

sequence VRRRANVRVLRD , protein stability index observed: 0.688

The measured protein stability index associated with SMFGSVGLMPCG reads 0.656

Taken from the supplement of paper PMC10724198.
